Values compiled from the supplement of paper PMC3334620.

target: Ste12 (UniProt P13574); experiment: PBM E-score (8-mer binding enrichment) (E-score (-0.5 to 0.5)); higher = stronger / more preferred TF binding; conditions: protein concentration: 200 nM; construct: GST-DNA-binding domain
Sequence (P13574 whole entry, the tested form may be a part): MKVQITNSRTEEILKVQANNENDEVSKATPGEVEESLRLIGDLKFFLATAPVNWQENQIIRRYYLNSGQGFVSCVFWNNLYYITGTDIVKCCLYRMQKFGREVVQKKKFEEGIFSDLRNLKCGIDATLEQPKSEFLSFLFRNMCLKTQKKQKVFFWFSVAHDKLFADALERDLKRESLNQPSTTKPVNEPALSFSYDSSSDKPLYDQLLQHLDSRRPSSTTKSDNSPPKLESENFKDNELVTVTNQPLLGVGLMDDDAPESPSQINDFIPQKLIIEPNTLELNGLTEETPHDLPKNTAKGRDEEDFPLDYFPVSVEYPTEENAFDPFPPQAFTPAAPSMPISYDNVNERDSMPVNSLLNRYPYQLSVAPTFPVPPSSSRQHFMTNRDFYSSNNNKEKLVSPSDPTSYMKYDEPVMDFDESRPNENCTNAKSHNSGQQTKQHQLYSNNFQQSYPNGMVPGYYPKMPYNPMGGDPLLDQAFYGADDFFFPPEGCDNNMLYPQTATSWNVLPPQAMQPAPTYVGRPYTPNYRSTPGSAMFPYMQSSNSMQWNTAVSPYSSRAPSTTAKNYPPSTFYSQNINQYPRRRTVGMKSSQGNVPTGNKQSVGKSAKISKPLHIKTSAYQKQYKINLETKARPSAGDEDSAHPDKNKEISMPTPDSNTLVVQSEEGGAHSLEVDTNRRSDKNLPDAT
Whole data set: some 33,000 sequences, median “E-score (-0.5 to 0.5)” near -0.01, cut for the highest 2% near 0.26. The full list was thinned out, with the highest values kept by preference.
Exercise: state measured PBM E-score for each of the sequences provided.
One number for each entry.

Please state PBM E-score for every sequence in the list that follows.
1. GAAAGCTC
2. CTTGAGGC
3. ACAAGCGG
4. ATATCAAG
5. AACGCACT

1: -0.201; 2: -0.184; 3: 0.106; 4: 0.139; 5: -0.0209
